- study.system: SHP2-C SH2;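 also: peptide library displayed on the E. coli surface as eCPX fusions, selected cells deep-sequenced, score is each peptide's frequency after selection divided by its frequency in the input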
- test.details: SH2 binding enrichment of the phosphorylated peptide, bacterial display (enrichment ratio); higher = better substrate or ligand; peptides without Tyr show the background
readout.type: SH2 binding enrichment

1. FAKTQYPDVYA [CRX_Y63] = 1
2. AQMAMYFWEMS [TRPM4_Y577_G582S] = 1.08
3. QTWKTYVRQQQ [SFI1_Y164] = 0.96
4. RYVTRYIYNRE [HLA-DQB1_Y62] = 0.432
5. EMTRNYIIFIE [BCO2_Y294_G289E] = 0.903
6. LLKKIYLMLDN [STAT1_Y203_M202I] = 1.1
7. REEKNYKLKET [BCLAF1_Y459] = 0.956
8. SVTCTYSPALT [TP53_Y126_N131T] = 0.474
9. VPEANYTSDEE [STK33_Y439_D436E] = 0.579
10. THPFPYLSLEI [MLH1_Y293_L292P] = 0.752
11. VDTRAYFTSAT [MT-CO1_Y304] = 0.678
12. TYEYKYPEGSS [TGM4_Y440] = 0.701
13. VIKDKYPQARF [APTX_Y209_K211Q_YF] = 1.02
14. TTPFNYSFIFK [RAB14_Y8_A4T_YF] = 1.82
15. SFLSYYTSHVQ [NEFL_Y443_P440L] = 3.81
16. RFLRGYRQYAY [HLA-A_Y137_D140Y] = 0.602
17. DAANNYARGHY [TUBA3E_Y103_S101N] = 0.558
18. NYADPYRQLQY [CTNND2_Y503] = 1.12
19. AEEKEYHAEGG [EGFR_Y869] = 0.748
20. TKEPKYGGAGS [KIAA1210_Y1615_E1616G] = 0.983
21. SGEKPYKCSEC [ZNF543_Y283] = 0.65
22. DFFDLYGGEKL [PTPN11_Y66_F71L_YF] = 0.979
23. SVVVPYEPPEG [TP53_Y220_V225G] = 0.997
24. QPGTDYKIFLF [FN1_Y1970_YF] = 0.548
25. SRWKLYPRMLR [HAO1_Y50] = 0.585
26. DYYDLYGGEKK [PTPN11_Y66_F71K] = 0.665
27. EHFSYYGMKAV [SLC15A2_Y61_R57H] = 0.816
28. PQQLWYTHEKK [UBTF_Y207] = 0.812
29. ISDNAYQYMLT [MYH7_Y162] = 0.873
